- test.settings: 333.15 K; 101.33 kPa; Liquid; Falling or rolling sphere viscometry
Measured viscosity by item
Lab book: enter the figure in mPa·s, no units written.

In: What value of viscosity has been recorded for this entry: "CC(=O)OCC[N+](C)(C)C.O=S(=O)([N-]S(=O)(=O)C(F)(F)F)C(F)(F)F"
Out: 38.5

----------
Measured viscosity by item
- test.settings: 343.15 K; 101.33 kPa; Liquid; Falling or rolling sphere viscometry
Lab book: enter the figure in mPa·s, no units written.

Examples with their reported viscosity follow.
# compound, viscosity (mPa·s)
data = [
    ("CCCCCC[n+]1cccc(C)c1.O=S(=O)([N-]S(=O)(=O)C(F)(F)F)C(F)(F)F", 17.5),
    ("O=S(=O)([N-]S(=O)(=O)C(F)(F)F)C(F)(F)F.OCCC[n+]1ccccc1", 22.8),
]

Here's the next entry for you.
In: What value of viscosity has been recorded for this entry: CCCC[N+](C)(C)C.O=S(=O)([N-]S(=O)(=O)C(F)(F)F)C(F)(F)F [butyltrimethylammonium bis(trifluoromethylsulfonyl)imide]
Out: 21.5

----------
- test.settings: 293.15 K; 101.33 kPa; Liquid; Falling or rolling sphere viscometry
Measured viscosity by item
Lab book: enter the figure in mPa·s, no units written.

Examples with their reported viscosity follow.
# compound, readout.kind, units.of.measure, obs.value
measured = [
    ("CC(=O)OCC[N+](C)(C)C.O=S(=O)([N-]S(=O)(=O)C(F)(F)F)C(F)(F)F", "viscosity", "mPa·s", 309),
    ("CCCCCC[n+]1cccc(C)c1.O=S(=O)([N-]S(=O)(=O)C(F)(F)F)C(F)(F)F", "viscosity", "mPa·s", 105),
    ("CCC[N+](C)(C)CCO.O=S(=O)([N-]S(=O)(=O)C(F)(F)F)C(F)(F)F", "viscosity", "mPa·s", 160),
    ("CCCC[N+]1(C)CCCC1.O=S(=O)([N-]S(=O)(=O)C(F)(F)F)C(F)(F)F", "viscosity", "mPa·s", 101),
    ("CCCC[N+](C)(C)C.O=S(=O)([N-]S(=O)(=O)C(F)(F)F)C(F)(F)F [butyltrimethylammonium bis(trifluoromethylsulfonyl)imide]", "viscosity", "mPa·s", 138),
]

Here's the next entry for you.
In: What value of viscosity has been recorded for this entry: "O=S(=O)([N-]S(=O)(=O)C(F)(F)F)C(F)(F)F.OCCC[n+]1ccccc1"
Out: 160

----------
- test.settings: 303.15 K; 101.33 kPa; Liquid; Falling or rolling sphere viscometry
± gives the expanded uncertainty stated by the source.
Measured viscosity by item
Answer with the figure and its unit, nothing else.

# compound, viscosity
records = [
    ("O=S(=O)([N-]S(=O)(=O)C(F)(F)F)C(F)(F)F.OCCC[n+]1ccccc1", "92.2 ± 4.3 mPa·s"),
]

In: What value of viscosity has been recorded for this entry: "CCCCCC[n+]1cccc(C)c1.O=S(=O)([N-]S(=O)(=O)C(F)(F)F)C(F)(F)F"
Out: 64.2 ± 2.7 mPa·s

In: What value of viscosity has been recorded for this entry: CCCC[N+](C)(C)C.O=S(=O)([N-]S(=O)(=O)C(F)(F)F)C(F)(F)F [butyltrimethylammonium bis(trifluoromethylsulfonyl)imide]
Out: 82.3 ± 3.7 mPa·s

In: What value of viscosity has been recorded for this entry: "CC(=O)OCC[N+](C)(C)C.O=S(=O)([N-]S(=O)(=O)C(F)(F)F)C(F)(F)F"
Out: 162 ± 9 mPa·s

In: What value of viscosity has been recorded for this entry: "CCC[N+](C)(C)CCO.O=S(=O)([N-]S(=O)(=O)C(F)(F)F)C(F)(F)F"
Out: 92.7 ± 4.3 mPa·s

In: What value of viscosity has been recorded for this entry: "CCCC[N+]1(C)CCCC1.O=S(=O)([N-]S(=O)(=O)C(F)(F)F)C(F)(F)F"
Out: 63.8 ± 2.7 mPa·s

src = the NIST ThermoML archive (doi:10.1021/je2006743)
